// IC50 collected for human β-Secretase (Homo sapiens, UniProt P56817)
Where a name gives a salt, the structure may show the parent alone.
Measured property: IC50 (µM)

[[record]]
molecule = "NC1=NC(c2cccc(-c3cccnc3F)c2)(c2ccc3c(c2)OCCO3)c2ccccc21 (stereo not shown) [Example 15, trifluoroacetate]"
val = 0.748

[[record]]
molecule = "COc1ccc(C2(c3cccc(-c4cccnc4)c3)N=C(N)c3ccccc32)cc1C (stereo not shown) [Example 22, trifluoroacetate]"
val = 0.145

[[record]]
molecule = "NC1=NC(c2cccc(-c3cccnc3)c2)(c2ccc3c(c2)OCO3)c2ccccc21 (stereo not shown)"
val = 1.61

[[record]]
molecule = "COc1ccc(F)c(-c2cccc(C3(c4ccncc4)N=C(N)c4ccccc43)c2)c1 (stereo not shown)"
val = 0.11

[[record]]
molecule = "NC1=NC(c2cccc(-c3cncnc3)c2)(c2ccc3c(c2)OCO3)c2ccccc21 (stereo not shown) [Example 30, trifluoroacetate]"
val = 0.942

[[record]]
molecule = "COc1ccc(C2(c3cccc(-c4cncnc4)c3)N=C(N)c3ccccc32)cc1 (stereo not shown) [Example 13, trifluoroacetate]"
val = 0.106

[[record]]
molecule = "COc1ncc(C2(c3cccc(-c4cccc(OC)c4F)c3)N=C(N)c3ccccc32)cn1 (stereo not shown)"
val = 0.75


----------
Structures can show the parent of a compound that is named as a salt.
Reported IC50 for target or system human β-Secretase (Homo sapiens), by entry.
Measured property: IC50 (nM)

[[record]]
molecule = "COc1cc(OS(C)(=O)=O)cc(-c2cccc(C3(c4ccc5c(c4)OCCO5)N=C(N)c4ccccc43)c2)c1 (stereo not drawn) [Example 26, methanesulfonate trifluoroacetate]"
unit_string = "nM"
comparator = "="
val = 1280

[[record]]
molecule = "CC1(c2cccc(-c3cccnc3F)c2)N=C(N)c2ccccc21 (stereo not drawn) [Example 96, acetate]"
unit_string = "nM"
comparator = "="
val = 2200

[[record]]
molecule = "COc1ccc(C2(c3cccc(-c4cccnc4F)c3)N=C(N)c3ccccc32)cc1 (stereo not drawn) [Example 10, trifluoroacetate]"
unit_string = "nM"
comparator = "="
val = 78

[[record]]
molecule = "COc1cccc(-c2cccc(C3(c4ccncc4)N=C(N)c4ccccc43)c2)c1 (stereo not drawn) [Example 47, trifluoroacetate]"
unit_string = "nM"
comparator = "="
val = 55

[[record]]
molecule = "COc1ccc(F)c(-c2cccc(C3(c4ccncc4F)N=C(N)c4ccccc43)c2)c1 (stereo not drawn) [Example 99]"
unit_string = "nM"
comparator = "="
val = 220

[[record]]
molecule = "COc1cncc(-c2cccc(C3(c4ccc5c(c4)OCO5)N=C(N)c4ccccc43)c2)c1 (stereo not drawn) [Example 32, trifluoroacetate]"
unit_string = "nM"
comparator = "="
val = 708

[[record]]
molecule = "COc1ccc(C2(c3ccc(F)c(-c4cccnc4F)c3)N=C(N)c3ccccc32)cc1C (stereo not drawn) [Example 128]"
unit_string = "nM"
comparator = "="
val = 40

[[record]]
molecule = "CC1(c2cccc(-c3cncc(F)c3)c2)N=C(N)c2ccccc21 (stereo not drawn) [Example 98, acetate]"
unit_string = "nM"
comparator = "="
val = 2000

[[record]]
molecule = "COc1ccc(C2(c3cccc(-c4cc(OC)cc(OS(C)(=O)=O)c4)c3)N=C(N)c3ccccc32)cc1 (stereo not drawn) [Example 14, trifluoroacetate]"
unit_string = "nM"
comparator = "="
val = 153

[[record]]
molecule = "CC(C)C1(c2cccc(-c3cncnc3)c2)N=C(N)c2ccccc21 (stereo not drawn) [Example 97, acetate]"
unit_string = "nM"
comparator = "="
val = 1000

[[record]]
molecule = "CC(C)Cn1cc(-c2cccc(C3(c4ccncc4)N=C(N)c4ccccc43)c2)cn1 (stereo not drawn) [Example 62]"
unit_string = "nM"
comparator = ">"
val = 10000

[[record]]
molecule = "COc1ccc(C2(c3ccc(O)c(-c4cccnc4)c3)N=C(N)c3ccccc32)cc1 (stereo not drawn) [Example 7, trifluoroacetate]"
unit_string = "nM"
comparator = "="
val = 86

[[record]]
molecule = "COc1ccc(C2(c3cccc(-c4cc(Cl)cc(Cl)c4)c3)N=C(N)c3ccccc32)cc1 (stereo not drawn) [Example 88, acetate]"
unit_string = "nM"
comparator = "="
val = 65

[[record]]
molecule = "COc1cccc(-c2cccc(C3(c4ccc(OC)c(C)c4)N=C(N)c4ccccc43)c2)c1 (stereo not drawn) [Example 20, trifluoroacetate]"
unit_string = "nM"
comparator = "="
val = 101

[[record]]
molecule = "NC1=NC(c2cccc(-c3cccnc3F)c2)(c2ccc3c(c2)OCO3)c2ccccc21 (stereo not drawn) [Example 31, trifluoroacetate]"
unit_string = "nM"
comparator = "="
val = 768

